This collection of values is drawn from the RNAGym collection of RNA variant scans (doi:10.1002/anie.201605470).

B1: Osa-1-4 twister ribozyme (parent)
chain: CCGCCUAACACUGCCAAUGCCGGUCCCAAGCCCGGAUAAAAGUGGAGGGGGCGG

Variants of: B1
protocol: self-cleavage, relative activity (ratio to wild type); higher = more cleavage; co-transcriptional
Record condition met whenever self-cleavage is at 0.1 or higher; record condition not met when lower.

Example cases with answers are listed next.
# residue-change, qualitative-label
data = [
    ("C11U G35C", "condition met"),
    ("G19A G23A", "condition met"),
    ("C52U G54U", "condition met"),
    ("C11G G53U", "condition not met"),
    ("A10C A46C", "condition not met"),
]

Ask | API: above_or_equal(metric=self-cleavage, cutoff=0.1) for item A41G A8C
Reply | condition not met
